Reported pKi values for a set of compounds
target_entity: memapsin 2 (Homo sapiens, UniProt P56817)
Sequence (P56817 46-501): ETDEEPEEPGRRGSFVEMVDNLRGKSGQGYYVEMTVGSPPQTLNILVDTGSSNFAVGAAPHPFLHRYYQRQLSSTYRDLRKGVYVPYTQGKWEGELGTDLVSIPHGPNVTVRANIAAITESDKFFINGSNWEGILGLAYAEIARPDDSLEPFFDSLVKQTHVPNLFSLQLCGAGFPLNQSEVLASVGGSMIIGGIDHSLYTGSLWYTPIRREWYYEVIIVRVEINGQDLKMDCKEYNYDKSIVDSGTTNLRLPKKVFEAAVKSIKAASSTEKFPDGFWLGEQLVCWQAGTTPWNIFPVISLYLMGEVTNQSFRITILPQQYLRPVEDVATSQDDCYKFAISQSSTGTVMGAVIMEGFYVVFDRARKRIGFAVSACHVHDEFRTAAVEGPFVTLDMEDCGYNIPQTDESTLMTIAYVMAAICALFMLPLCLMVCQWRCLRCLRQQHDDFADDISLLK
assay_details: Inhibition of memapsin 2 beta-secretase activity (fluorogenic substrate FS-2)
Type: biochemical
condition_context: memapsin 2, pH 4, 37° C., fluorogenic substrate FS-2; read-out: M2Ki
pKi: −log10 of the molar value.

compound | pKi
CC(=O)c1cc(C(=O)N[C@@H](Cc2ccccc2)[C@H](O)CNCc2cccc(C(F)(F)F)c2)cc(C(=O)N(C)Cc2nc(C)cs2)c1 [Compound 244] | > 6.52
CNc1cc(CNC[C@@H](O)[C@H](Cc2ccccc2)NC(=O)c2cccc(C(=O)N(C)Cc3nc(C)cs3)c2)cc(C(F)(F)F)c1 [Compound 283] | > 6.52
COc1cccc([C@@H](C)NC[C@@H](O)[C@H](Cc2ccccc2)NC(=O)c2cc(C(=O)N(C)Cc3nc(C)cs3)cc(-c3ncco3)c2)c1 [Compound 290] | > 6.52
Cc1csc(CN(C)C(=O)c2cccc(C(=O)N[C@@H](Cc3ccccc3)[C@H](O)CNCc3cc(C(C)C)cc(S(=O)(=O)C(C)C)c3)c2)n1 [Compound 229] | > 6.52
Cc1csc(CN(C)C(=O)c2cccc(C(=O)N[C@@H](Cc3ccccc3)[C@H](O)CNCc3cc(Cl)cc(Cl)c3)c2)n1 [Compound 236] | > 6.52
CC(C)c1cncc(CNC[C@@H](O)[C@H](Cc2ccccc2)NC(=O)c2cccc(C(=O)N(C)Cc3nc(Br)cs3)c2)c1 [Compound 315] | > 6.52
Cc1csc(CN(C)C(=O)c2cc(C(=O)N[C@@H](Cc3ccccc3)[C@H](O)CNCc3cncc(C(C)C)c3)cc(-c3cn[nH]c3)c2)n1 [Compound 295] | > 6.52
Cc1csc(CN(C)C(=O)c2cc(C(=O)N[C@@H](Cc3ccccc3)[C@H](O)CNCc3cccc(C(F)(F)F)c3)cc(-c3cnccn3)c2)n1 [Compound 222] | > 6.52
COc1cccc(CNC[C@@H](O)[C@H](Cc2ccccc2)NC(=O)c2cc(C(=O)N(C)Cc3nc(C)cs3)cc(C3CCC(O)C3)c2)c1 (stereo partly shown) [Compound 307] | < 6.30
COc1cccc(S(=O)(=O)NC[C@@H](O)[C@H](Cc2ccccc2)NC(=O)c2cccc(C(=O)N(C)Cc3nc(C)cs3)c2)c1 [Compound 309] | < 6.30
Cc1csc(CN(C)C(=O)c2cc(C(=O)N[C@@H](Cc3ccccc3)[C@H](O)CNCc3cncc(C(C)C)c3)cc(-c3ccc(N(C)C)cc3)c2)n1 [Compound 298] | > 6.52
COc1cccc(CNC[C@@H](O)[C@H](Cc2cc(F)cc(F)c2)NC(=O)c2cc(C(C)=O)cc(C(=O)N[C@H](C)c3ccccc3)c2)c1 [Compound 306] | > 6.52
CN(Cc1nc(CF)cs1)C(=O)c1cccc(C(=O)N[C@@H](Cc2ccccc2)[C@H](O)CNCc2cncc(C(C)(C)F)c2)c1 [Compound 281] | > 6.52

Recorded values, source patent US20100286145A1.
